test system: Mus musculus; assay: Potency index, ratio of Indomethacin ED50 to test compound ED50 for antiinflammatory activity against TPA-induced ear edema in female CD1 mouse model assessed as reduction in ear edema by measuring effective dose measured per ear incubated for 4 hrs administered topically; type: functional
Ratio ED50 values by entry
measured.metric: Ratio ED50

- CCC(=O)OCC(C)(N[C@@H](C)c1ccccc1)P(=O)(OC)OC (stereo partly specified): 0.8
- COc1ccc2cc([C@H](C)C(=O)OCC(C)(NCc3ccccc3)P(=O)(OC)OC)ccc2c1 (stereo partly specified): 1
- CCC(=O)OCC(C)(NCc1ccccc1)P(=O)(OC)OC (stereo unspecified): 1.1
- COc1ccc2cc([C@H](C)C(=O)OCC(C)(N[C@@H](C)c3ccccc3)P(=O)(OC)OC)ccc2c1 (stereo partly specified): 2.1
- COP(=O)(OC)C(C)(COC(=O)c1ccccc1)N[C@@H](C)c1ccccc1 (stereo partly specified): 1.2
- COP(=O)(OC)C(C)(COC(=O)c1ccccc1)NCc1ccccc1 (stereo unspecified): 1.1
